src = patent US20190083612A1

Molecular target: T1, human PD-1 (hPD-1) monomer (human, UniProt Q15116 25-167)
T1 construct: also called hu-PD-1; not shown: His tag (His-tagged monomer)
T1 sequence (Q15116 25-167 limits assumed): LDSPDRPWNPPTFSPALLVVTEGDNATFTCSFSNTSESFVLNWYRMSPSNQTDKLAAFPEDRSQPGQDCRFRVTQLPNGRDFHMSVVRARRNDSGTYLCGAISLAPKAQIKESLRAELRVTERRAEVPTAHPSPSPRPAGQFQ
Test: SPR, human PD-1, 25 C
Please provide measured Kd for the entries that follow.
Hey, just the number and the unit after it is fine.

// Kd value for mAb15 (human IgG4 kappa, hinge stabilized) (antibody, V domains shown, also called mAb15-G4; mAb15 (G4)) VH: QVQLVQSGAEVKKPGASVKVSCKASGYTFTSYWINWVRQAPGQGLEWMGNIWPGSSLTNYNEKFKNRVTMTRDTSTSTVYMELSSLRSEDTAVYYCARLLTGTFAYWGQGTLVTVSS VL: DIVMTQSPDSLAVSLGERATINCKSSQSLWDSGNQKNFLTWYQQKPGQPPKLLIYWTSYRESGVPDRFSGSGSGTDFTLTISSLQAEDVAVYYCQNDYFYPHTFGGGTKVEIK : 0.49 nM

// Kd value for mAb16 (antibody, V domains shown, Variable regions only) VH: QVQLVQSGAEVKKPGASVKVSCKASGYTFTSYWINWVRQAPGQGLEWMGNIWPGSSLTNYNEKFKNRVTMTRDTSTSTVYMELSSLRSEDTAVYYCARLLTGTFAYWGQGTLVTVSS VL: DIVMTQSPDSLAVSLGERATINCKSSQSLWDSTNQKNFLTWYQQKPGQPPKLLIYWTSTRESGVPDRFSGSGSGTDFTLTISSLQAEDVAVYYCQNDYFYPLTFGGGTKVEIK : 7.51 nM

// Kd value for mAb1 (antibody, V domains shown, Variable regions only) VH: QVQLVQSGAEVKKPGASVKVSCKASGYTFTSYWINWVRQAPGQGLEWMGNIYPGSSLTNYNEKFKNRVTMTRDTSTSTVYMELSSLRSEDTAVYYCARLLTGTFAYWGQGTLVTVSS VL: DIVMTQSPDSLAVSLGERATINCKSSQSLWDSGNQKNFLTWYQQKPGQPPKLLIYWTSTRESGVPDRFSGSGSGTDFTLTISSLQAEDVAVYYCQNDYFYPLTFGGGTKVEIK : 64.2 nM
